- Target System: USP2^CD (purified catalytic domain of USP2) (Homo sapiens, UniProt O75604)
- Construct: The purified catalytic domain of USP2 (USP2^CD, in-house purified); His; made in house; host or cells: E. coli BL21 Gold
- Sequence (O75604 267-599 limits assumed): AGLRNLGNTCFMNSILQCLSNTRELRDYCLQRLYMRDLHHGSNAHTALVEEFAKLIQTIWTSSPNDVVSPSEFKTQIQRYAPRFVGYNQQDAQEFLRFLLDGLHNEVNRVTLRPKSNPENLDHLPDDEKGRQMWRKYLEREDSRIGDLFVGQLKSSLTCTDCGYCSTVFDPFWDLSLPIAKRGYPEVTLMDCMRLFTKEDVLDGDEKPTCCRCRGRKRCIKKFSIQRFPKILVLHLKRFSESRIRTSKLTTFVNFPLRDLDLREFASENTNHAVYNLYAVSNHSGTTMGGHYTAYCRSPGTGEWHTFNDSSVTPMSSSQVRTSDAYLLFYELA
- Assay: Inhibition of purified USP2^CD enzymatic activity (Ub-AMC or Ub-Rho substrate)
- Assay type: biochemical
- Cond: 0.05 μM compound; Table 1c
Assay Endpoint: inhibition at 0.05 µM (%)

| Compound String | Target System | inhibition at 0.05 µM (%) |
| --- | --- | --- |
| O=C1c2ccccc2C(=O)c2nc(CS(=O)(=O)c3ccc(F)c(F)c3F)c(CS(=O)(=O)c3ccc(F)c(F)c3F)nc21 | USP2^CD (purified catalytic domain of USP2) (Homo sapiens, UniProt O75604) | -26 |
| O=C1c2ccccc2C(=O)c2nc(CS(=O)(=O)c3ccc4c(c3)OCCO4)c(CS(=O)(=O)c3ccc4c(c3)OCCO4)nc21 | USP2^CD (purified catalytic domain of USP2) (Homo sapiens, UniProt O75604) | -14 |
| O=C1c2ccccc2C(=O)c2nc(CS(=O)(=O)c3ccccc3F)c(CS(=O)(=O)c3ccccc3F)nc21 | USP2^CD (purified catalytic domain of USP2) (Homo sapiens, UniProt O75604) | 2 |
| O=C1c2ccccc2C(=O)c2nc(CS(=O)(=O)c3cccc(F)c3)c(CS(=O)(=O)c3cccc(F)c3)nc21 | USP2^CD (purified catalytic domain of USP2) (Homo sapiens, UniProt O75604) | -20 |

1. CCS(=O)(=O)Cc1nc2c(nc1CS(=O)(=O)CC)C(=O)c1ccccc1C2=O
2. COc1ccc(S(=O)(=O)Cc2nc3c(nc2CS(=O)(=O)c2ccc(OC)cc2)C(=O)c2ccccc2C3=O)cc1
## Input Given the listed records, identify the one among 1 and 2 with higher inhibition at 0.05 µM. Bench note: the answer is the label of the chosen record.
## Output 1
(1: 6%, 2: -12%)

1. O=C1c2ccccc2C(=O)c2nc(CS(=O)(=O)c3cccc(Cl)c3)c(CS(=O)(=O)c3cccc(Cl)c3)nc21
2. CCCS(=O)(=O)Cc1nc2c(nc1CS(=O)(=O)CCC)C(=O)c1ccccc1C2=O
## Input Two entries are listed, 1 and 2 . Which one carries the higher inhibition at 0.05 µM? Write down the label attached to your selection.
## Output 1
(1: 3%, 2: -13%)

a. CS(=O)(=O)Cc1nc2c(nc1CS(C)(=O)=O)C(=O)c1ccccc1C2=O
b. CCCCCS(=O)(=O)Cc1nc2c(nc1CS(=O)(=O)CCCCC)C(=O)c1ccccc1C2=O
## Input Which is greater in inhibition at 0.05 µM, the first item a or the second item b ? Mark your answer with the label of the selected entry.
## Output a
(a: -7%, b: -16%)

---

- Target System: USP2^CD (purified catalytic domain of USP2) (Homo sapiens, UniProt O75604)
- Construct: The purified catalytic domain of USP2 (USP2^CD, in-house purified); His; made in house; host or cells: E. coli BL21 Gold
- Assay: Inhibition of purified USP2^CD enzymatic activity (Ub-AMC or Ub-Rho substrate)
- Format: biochemical
- Cond: 50 μM compound; Table 1b
Assay Endpoint: inhibition at 50 µM (%)

| Compound String | Target System | inhibition at 50 µM / % |
| --- | --- | --- |
| CCS(=O)(=O)Cc1nc2c(nc1CS(=O)(=O)CC)C(=O)c1ccccc1C2=O | USP2^CD (purified catalytic domain of USP2) (Homo sapiens, UniProt O75604) | 100 |
| O=C1c2ccccc2C(=O)c2nc(CS(=O)(=O)c3cccc(C(F)(F)F)c3)c(CS(=O)(=O)c3cccc(C(F)(F)F)c3)nc21 | USP2^CD (purified catalytic domain of USP2) (Homo sapiens, UniProt O75604) | 25 |
| CS(=O)(=O)Cc1nc2c(nc1CS(C)(=O)=O)C(=O)c1ccccc1C2=O | USP2^CD (purified catalytic domain of USP2) (Homo sapiens, UniProt O75604) | 97 |
| COc1ccc(S(=O)(=O)Cc2nc3c(nc2CS(=O)(=O)c2ccc(OC)c(OC)c2)C(=O)c2ccccc2C3=O)cc1OC | USP2^CD (purified catalytic domain of USP2) (Homo sapiens, UniProt O75604) | 63 |
| O=C1c2ccccc2C(=O)c2nc(CS(=O)(=O)c3ccccc3F)c(CS(=O)(=O)c3ccccc3F)nc21 | USP2^CD (purified catalytic domain of USP2) (Homo sapiens, UniProt O75604) | 96 |

P. O=C1c2ccccc2C(=O)c2nc(CS(=O)(=O)c3ccc(Br)s3)c(CS(=O)(=O)c3ccc(Br)s3)nc21
Q. O=C1c2ccccc2C(=O)c2nc(CS(=O)(=O)c3cccc(F)c3)c(CS(=O)(=O)c3cccc(F)c3)nc21
## Input Of P and Q , whose reported inhibition at 50 µM is numerically smaller? In your reply, give the label of the chosen option.
## Output Q
(Q: 41%, P: 80%)

---

- Target System: USP2^CD (purified catalytic domain of USP2) (Homo sapiens, UniProt O75604)
- Construct: The purified catalytic domain of USP2 (USP2^CD, in-house purified); His; made in house; host or cells: E. coli BL21 Gold
- Assay: Inhibition of purified USP2^CD enzymatic activity (Ub-AMC or Ub-Rho substrate)
- Format: biochemical
- Cond: 25 μM compound; Table 1b
- Description: USP2CD or USP8CD were expressed in E. coli BL21 Gold. Cells were grown in LB Miller to mid-log phase and induced by addition of 0.5 mM IPTG for USP2CD for 5 h at 20° C., while 1 mM IPTG was added for USP8CD for 3 h at 37° C. Then, cells were harvested and frozen at −80° C. For His-tagged USP2CD, cells were resuspended in buffer C (10 mM TRIS pH 8.0, 100 mM NaCl, 10 mM Imidazole) and lysed using a sonicator. […]
Assay Endpoint: inhibition at 25 µM (%)

Past entries and their recorded results:
| Compound | inhibition at 25 µM, % |
| --- | --- |
| O=C1c2ccccc2C(=O)c2nc(CS(=O)(=O)c3cccc(F)c3)c(CS(=O)(=O)c3cccc(F)c3)nc21 [OVM13] | 66 |
| O=C1c2ccccc2C(=O)c2nc(CS(=O)(=O)c3ccc(F)c(F)c3F)c(CS(=O)(=O)c3ccc(F)c(F)c3F)nc21 [OVM23] | 94 |
| CS(=O)(=O)Cc1nc2c(nc1CS(C)(=O)=O)C(=O)c1ccccc1C2=O [VIN6076] | 95 |
| CCCS(=O)(=O)Cc1nc2c(nc1CS(=O)(=O)CCC)C(=O)c1ccccc1C2=O [VIN6074] | 98 |
| O=C1c2ccccc2C(=O)c2nc(CS(=O)(=O)c3cccc(Cl)c3)c(CS(=O)(=O)c3cccc(Cl)c3)nc21 [OVM15] | 16 |

a. CCS(=O)(=O)Cc1nc2c(nc1CS(=O)(=O)CC)C(=O)c1ccccc1C2=O [VIN6075]
b. COc1ccc(S(=O)(=O)Cc2nc3c(nc2CS(=O)(=O)c2ccc(OC)cc2)C(=O)c2ccccc2C3=O)cc1 [PCR7994]
## Input Consider a and b . Which of these has its inhibition at 25 µM at a higher number? Pick one; state its label.
## Output a
(a: 99%, b: 53%)

I. CCCCCS(=O)(=O)Cc1nc2c(nc1CS(=O)(=O)CCCCC)C(=O)c1ccccc1C2=O [VIN6077]
II. O=C1c2ccccc2C(=O)c2nc(CS(=O)(=O)c3ccc(Br)s3)c(CS(=O)(=O)c3ccc(Br)s3)nc21 [OVM16]
## Input Which gives the smaller inhibition at 25 µM number: I or II ? Kindly state the label of the option you pick.
## Output II
(II: 42%, I: 63%)

1. O=C1c2ccccc2C(=O)c2nc(CS(=O)(=O)c3ccccc3F)c(CS(=O)(=O)c3ccccc3F)nc21 [OVM24]
2. O=C1c2ccccc2C(=O)c2nc(CS(=O)(=O)c3cccc(C(F)(F)F)c3)c(CS(=O)(=O)c3cccc(C(F)(F)F)c3)nc21 [OVM17]
3. COc1ccc(S(=O)(=O)Cc2nc3c(nc2CS(=O)(=O)c2ccc(OC)c(OC)c2)C(=O)c2ccccc2C3=O)cc1OC [OVM18]
## Input Please produce an ascending ranking of these compounds based on inhibition at 25 µM. To answer, write out the labels according to the requested order.
## Output 2, 3, 1

---

- Target System: USP2^CD (purified catalytic domain of USP2) (Homo sapiens)
- Construct: The purified catalytic domain of USP2 (USP2^CD, in-house purified); His; made in house; host or cells: E. coli BL21 Gold
- Assay: Inhibition of purified USP2^CD enzymatic activity (Ub-AMC or Ub-Rho substrate)
- Type: biochemical
- Cond: 10 μM compound; Table 1c
Assay Endpoint: inhibition at 10 µM (%)

| Compound String | Result Unit | inhibition at 10 µM |
| --- | --- | --- |
| COc1ccc(S(=O)(=O)Cc2nc3c(nc2CS(=O)(=O)c2ccc(OC)cc2)C(=O)c2ccccc2C3=O)cc1 | % | 17 |
| CCCCCS(=O)(=O)Cc1nc2c(nc1CS(=O)(=O)CCCCC)C(=O)c1ccccc1C2=O | % | 27 |
| CCCS(=O)(=O)Cc1nc2c(nc1CS(=O)(=O)CCC)C(=O)c1ccccc1C2=O | % | 77 |
| CS(=O)(=O)Cc1nc2c(nc1CS(C)(=O)=O)C(=O)c1ccccc1C2=O | % | 56 |
| O=C1c2ccccc2C(=O)c2nc(CS(=O)(=O)c3ccc4c(c3)OCCO4)c(CS(=O)(=O)c3ccc4c(c3)OCCO4)nc21 | % | 11 |

A. O=C1c2ccccc2C(=O)c2nc(CS(=O)(=O)c3ccccc3F)c(CS(=O)(=O)c3ccccc3F)nc21
B. O=C1c2ccccc2C(=O)c2nc(CS(=O)(=O)c3ccc(F)c(F)c3F)c(CS(=O)(=O)c3ccc(F)c(F)c3F)nc21
## Input Consider entries A and B . Which has the numerically lower inhibition at 10 µM? Lab note: record the label of whichever item you select.
## Output B

A. O=C1c2ccccc2C(=O)c2nc(CS(=O)(=O)c3cccc(Cl)c3)c(CS(=O)(=O)c3cccc(Cl)c3)nc21
B. COc1ccc(S(=O)(=O)Cc2nc3c(nc2CS(=O)(=O)c2ccc(OC)c(OC)c2)C(=O)c2ccccc2C3=O)cc1OC
## Input Hi there, can you help? I need to know whether A or B has lower measured inhibition at 10 µM. Returns: label corresponding to the selected item.
## Output B

I. O=C1c2ccccc2C(=O)c2nc(CS(=O)(=O)c3cccc(F)c3)c(CS(=O)(=O)c3cccc(F)c3)nc21
II. CCS(=O)(=O)Cc1nc2c(nc1CS(=O)(=O)CC)C(=O)c1ccccc1C2=O
## Input Consider I and II . Which of these has its inhibition at 10 µM at a higher number? Refer to your chosen entry by its label in the reply.
## Output II
